Protocol details: Pharmacokinetic analysis, plasma and brain
Type: in vivo, ICR (CD-1) male mice
Run conditions: male, ICR (CD-1), mouse, brain, iv, 1 mg/Kg, i.v., Time 4 h, individual animals; read-out: B/P, Brian/Plasma

{"Test smiles": "CC(=O)Nc1ccc(C2=Nc3ccc(Cl)cc3OC2)cc1", "Kp at 4 h": 188}
{"Test smiles": "Clc1ccc2c(c1)OCC(c1ccc(-c3ccccc3)cc1)=N2", "Kp at 4 h": 14.8}

###

Protocol details: Pharmacokinetic analysis, plasma and brain
Format: in vivo, ICR (CD-1) male mice
Run conditions: male, ICR (CD-1), mouse, plasma; mice; IV 1 mg/kg; read-out: Half-life in plasma (converted)
Procedure: ICR (CD-1) male mice were fasted at least three hours and water was available ad libitum before the study. Animals were housed in a controlled environment, target conditions: temperature 18 to 29 °C, relative humidity 30 to 70%. Temperature and relative humidity was monitored daily. […] Mice were sacrificed, and brain samples were harvested at […], 0.25 h, 0.5 h, 1 h, 2 h, 4 h, 8 h, 24 h, and analyzed for CA39 or CA77 levels using LC-MS/MS. […]
Property: half-life (h)

{"Test smiles": "CC(=O)Nc1ccc(C2=Nc3ccc(Cl)cc3OC2)cc1", "Units of measure": "h", "Value observed": 0.6}
{"Test smiles": "Clc1ccc2c(c1)OCC(c1ccc(-c3ccccc3)cc1)=N2", "Units of measure": "h", "Value observed": 8.2}
